This section presents compounds with their documented pIC50 values.
- Tested on: MDA-MB-231
- assay_protocol: Cytotoxicity against human MDA-MB-231 cells after 4 days by MTT assay
- Assay type: functional, cell-based
- condition_set: MDA-MB-231, 96 h
A value of pIC50 is the negative decimal logarithm of a concentration given in moles per litre.

Recorded pIC50, per entry:
1) Cc1ccc(CS(=O)(=O)N2CCN(C(=O)c3ccc(-c4nc5ccccc5c(=O)[nH]4)cc3)CC2)cc1 : 5.11
2) Cn1c(-c2ccc(C(=O)N3CCN(S(=O)(=O)c4ccccc4)CC3)cc2)nc2ccccc2c1=O : 5.04
3) CC(C)c1ccc(S(=O)(=O)N2CCN(C(=O)c3ccc(-c4nc5ccccc5c(=O)[nH]4)cc3)CC2)cc1 : 5.03
4) O=C(c1ccc(-c2nc3ccccc3c(=O)[nH]2)cc1)N1CCN(S(=O)(=O)c2ccc([N+](=O)[O-])cc2)CC1 : 4.90

Please examine the following record next.
Lookup: Which measured pIC50 value corresponds to COc1ccc(Cn2c(-c3ccc(C(=O)N4CCN(S(=O)(=O)c5ccc(OC)cc5)CC4)cc3)nc3ccccc3c2=O)cc1 ?
Found: 5.00

----------
- System: HCT-29
- assay_protocol: Cytotoxicity against human HCT29 cells after 4 days by MTT assay
- Format: functional, cell-based
- condition_set: HCT-29, 96 h
This section presents compounds with their documented IC50 values.

1. O=C(c1ccc(-c2nc3ccccc3c(=O)[nH]2)cc1)N1CCNCC1 : > 50 µM
2. CC(C)(C)OC(=O)N1CCN(C(=O)c2ccc(-c3nc4ccccc4c(=O)n3Cc3ccccc3)cc2)CC1 : > 50 µM

Please examine the following record next.
Lookup: Which measured IC50 value corresponds to O=C(c1ccc(-c2nc3ccccc3c(=O)[nH]2)cc1)N1CCN(S(=O)(=O)c2cccc3cccnc23)CC1 ?
Found: > 50 µM

----------
- System: MDA-MB-231
- assay_protocol: Cytotoxicity against human MDA-MB-231 cells after 4 days by MTT assay
- Assay type: functional, cell-based
- condition_set: MDA-MB-231, 96 h
assay_endpoint: IC50

1) O=C(c1ccc(-c2nc3ccccc3c(=O)[nH]2)cc1)N1CCN(S(=O)(=O)c2ccc(Cl)cc2)CC1 : > 50 µM
2) O=C(c1ccc(-c2nc3ccccc3c(=O)[nH]2)cc1)N1CCN(S(=O)(=O)Cc2ccc(Cl)cc2)CC1 : > 50 µM

Lookup: Which measured IC50 value corresponds to O=C(c1ccc(-c2nc3ccccc3c(=O)[nH]2)cc1)N1CCN(S(=O)(=O)c2cccc(C(F)(F)F)c2)CC1 ?
Found: > 50 µM

----------
- Tested on: HCT-29
- assay_protocol: Cytotoxicity against human HCT29 cells after 4 days by MTT assay
- Format: functional, cell-based
- condition_set: HCT-29, 96 h
assay_endpoint: IC50

Recorded IC50, per entry:
1) O=C(c1ccc(-c2nc3ccccc3c(=O)[nH]2)cc1)N1CCN(S(=O)(=O)C2CC2)CC1 : > 50 µM
2) CS(=O)(=O)N1CCN(C(=O)c2ccc(-c3nc4ccccc4c(=O)[nH]3)cc2)CC1 : > 50 µM

Please examine the following record next.
Lookup: Which measured IC50 value corresponds to O=C(c1ccc(-c2nc3ccccc3c(=O)[nH]2)cc1)N1CCN(S(=O)(=O)c2ccccc2C(F)(F)F)CC1 ?
Found: > 50 µM
